Experiment: Protide stability in normal plasma, human
Assay type: in vitro ADME
Settings: 37° C., 1.5 h
Values of % Compound Remaining Compared to %100 Acetonitrile Control greater than or equal to 90% map to True; values below map to False.

Decide: is the reported value of % Compound Remaining Compared to %100 Acetonitrile Control for COc1nc(N)nc2c1ncn2C1O[C@H](COP(=O)(N[C@H](C(=O)OCC(C)(C)C)C(C)C)Oc2c(C)ccc3ccccc23)[C@@H](O)[C@@]1(C)O (some centres unmarked) equal to or greater than 90%?
True

Decide: is the reported value of % Compound Remaining Compared to %100 Acetonitrile Control for COc1nc(N)nc2c1ncn2C1O[C@H](COP(=O)(N[C@H](C(=O)OC2CCOCC2)C(C)C)Oc2cccc3ccccc23)[C@@H](O)[C@@]1(C)O (some centres unmarked) equal to or greater than 90%?
True

Decide: is the reported value of % Compound Remaining Compared to %100 Acetonitrile Control for CC(C)[C@H](NP(=O)(OC[C@H]1OC(n2cnc3c(=O)[nH]c(N)nc32)[C@](C)(O)[C@@H]1O)Oc1cccc2ccccc12)C(=O)OCC(C)(C)C (some centres unmarked) [B, reference compound] equal to or greater than 90%?
False

Decide: is the reported value of % Compound Remaining Compared to %100 Acetonitrile Control for COc1nc(N)nc2c1ncn2C1O[C@H](COP(=O)(N[C@@H](C)C(=O)OCc2ccccc2)Oc2cccc3ccccc23)[C@@H](O)[C@@]1(C)O (some centres unmarked) equal to or greater than 90%?
False

Decide: is the reported value of % Compound Remaining Compared to %100 Acetonitrile Control for C[C@H](NP(=O)(OC[C@H]1OC(n2cnc3c(=O)[nH]c(N)nc32)[C@](C)(O)[C@@H]1O)Oc1cccc2ccccc12)C(=O)OCC(C)(C)C (some centres unmarked) [A, reference compound] equal to or greater than 90%?
False

====

Tested on: Vero cells
Conditions: African green monkey
recorded_endpoint: CC50

Consider the compound COc1nc(N)nc2c1ncn2C1O[C@H](COP(=O)(N[C@@H](C)C(=O)OCC(C)(C)C)Oc2cccc3ccccc23)[C@@H](O)[C@@]1(C)O (stereo partly shown) [Example 20] and give its recorded CC50.
> 10 µM

====

Assay: Protide stability in normal plasma, mouse
Format: in vitro ADME
Conditions: 37° C., 1.5 h
Values of % Compound Remaining Compared to %100 Acetonitrile Control greater than or equal to 30% map to label 1; values below map to label 0.

Decide: is the reported value of % Compound Remaining Compared to %100 Acetonitrile Control for COc1nc(N)nc2c1ncn2C1O[C@H](COP(=O)(N[C@H](C(=O)OCc2ccccc2)C(C)C)Oc2cccc3ccccc23)[C@@H](O)[C@@]1(C)O (stereo partly shown) [Example 36] equal to or greater than 30%?
label 0

Decide: is the reported value of % Compound Remaining Compared to %100 Acetonitrile Control for COc1nc(N)nc2c1ncn2C1O[C@H](COP(=O)(N[C@H](C(=O)OCC(C)(C)C)C(C)C)Oc2c(C)ccc3ccccc23)[C@@H](O)[C@@]1(C)O (stereo partly shown) [Example 54] equal to or greater than 30%?
label 1

Decide: is the reported value of % Compound Remaining Compared to %100 Acetonitrile Control for COc1nc(N)nc2c1ncn2C1O[C@H](COP(=O)(N[C@H](C(=O)OC2CCOCC2)C(C)C)Oc2cccc3ccccc23)[C@@H](O)[C@@]1(C)O (stereo partly shown) [Example 47] equal to or greater than 30%?
label 1

Decide: is the reported value of % Compound Remaining Compared to %100 Acetonitrile Control for C[C@H](NP(=O)(OC[C@H]1OC(n2cnc3c(=O)[nH]c(N)nc32)[C@](C)(O)[C@@H]1O)Oc1cccc2ccccc12)C(=O)OCC(C)(C)C (stereo partly shown) [A, reference compound] equal to or greater than 30%?
label 0

Decide: is the reported value of % Compound Remaining Compared to %100 Acetonitrile Control for CC(C)[C@H](NP(=O)(OC[C@H]1OC(n2cnc3c(=O)[nH]c(N)nc32)[C@](C)(O)[C@@H]1O)Oc1cccc2ccccc12)C(=O)OCC(C)(C)C (stereo partly shown) [B, reference compound] equal to or greater than 30%?
label 1

Decide: is the reported value of % Compound Remaining Compared to %100 Acetonitrile Control for COc1nc(N)nc2c1ncn2C1O[C@H](COP(=O)(N[C@@H](C)C(=O)OCC(C)(C)C)Oc2cccc3ccccc23)[C@@H](O)[C@@]1(C)O (stereo partly shown) [Example 20] equal to or greater than 30%?
label 0

Decide: is the reported value of % Compound Remaining Compared to %100 Acetonitrile Control for COc1nc(N)nc2c1ncn2C1O[C@H](COP(=O)(N[C@H](C(=O)OCC(C)(C)C)C(C)C)Oc2cccc3ccccc23)[C@@H](O)[C@@]1(C)O (stereo partly shown) [Example 42] equal to or greater than 30%?
label 1

====

Assay: in vitro
Settings: human
recorded_endpoint: CC50
Express your answer as a number followed by its unit.

Consider the compound COc1nc(N)nc2c1ncn2C1O[C@H](COP(=O)(N[C@H](C(=O)OC2CCCCC2)C(C)C)Oc2cccc3ccccc23)[C@@H](O)[C@@]1(C)O (stereo partly drawn) and give its recorded CC50.
24 µM

Consider the compound CCOc1nc(N)nc2c1ncn2C1O[C@H](COP(=O)(N[C@H](C(=O)OCC(C)(C)C)C(C)C)Oc2cccc3ccccc23)[C@@H](O)[C@@]1(C)O (stereo partly drawn) and give its recorded CC50.
24 µM

Consider the compound C[C@H](NP(=O)(OC[C@H]1OC(n2cnc3c(NCCc4ccccc4)nc(N)nc32)[C@](C)(O)[C@@H]1O)Oc1cccc2ccccc12)C(=O)OCC(C)(C)C (stereo partly drawn) and give its recorded CC50.
42 µM

====

Experiment: in vitro
Settings: human
recorded_endpoint: CC50 (µM)
Give the value, in units of µM, as a plain number.

Consider the compound COc1nc(N)nc2c1ncn2C1O[C@H](COP(=O)(N[C@H](C(=O)OC2CCCC2)C(C)C)Oc2cccc3ccccc23)[C@@H](O)[C@@]1(C)O (stereo partly drawn) and give its recorded CC50.
56

Consider the compound COc1nc(N)nc2c1ncn2[C@@H]1O[C@H](COP(=O)(N[C@@H](CC(C)C)C(=O)OCC(C)(C)C)Oc2cccc3ccccc23)[C@@H](O)[C@@]1(C)O (stereo partly drawn) and give its recorded CC50.
14

Consider the compound COc1nc(N)nc2c1ncn2C1O[C@H](COP(=O)(N[C@@H](C)C(=O)OC(C)C)Oc2cccc3ccccc23)[C@@H](O)[C@@]1(C)O (stereo partly drawn) and give its recorded CC50.
100

====

Experiment: Compound cytotoxicity in HIV cytoprotection assay (XTT)
Type: cell-based
Conditions: human, MT-4 cells; MT-4, HIV-1 assay
recorded_endpoint: CC50 at 5 days (µM)
Give the value, in units of µM, as a plain number.

Consider the compound COc1nc(N)nc2c1ncn2C1O[C@H](COP(=O)(N[C@@H](C)C(=O)OCC(C)(C)C)Oc2cccc3ccccc23)[C@@H](O)[C@@]1(C)O (stereo partly shown) and give its recorded CC50 at 5 days.
11

====

Assay: in vitro
Conditions: human
What CC50 was measured for each of the following?
Give the value, in units of µM, as a plain number.

Consider the compound CSc1nc(N)nc2c1ncn2C1O[C@H](COP(=O)(N[C@@H](C)C(=O)OCC(C)(C)C)Oc2cccc3ccccc23)[C@@H](O)[C@@]1(C)O (some centres unmarked) [Example 90] and give its recorded CC50.
41

Consider the compound COc1nc(N)nc2c1ncn2C1O[C@H](COP(=O)(N[C@H](C(=O)OC2CCC2)C(C)C)Oc2cccc3ccccc23)[C@@H](O)[C@@]1(C)O (some centres unmarked) [Example 44] and give its recorded CC50.
64

Consider the compound C[C@H](NP(=O)(OC[C@H]1OC(n2cnc3c(NCc4ccccc4)nc(N)nc32)[C@](C)(O)[C@@H]1O)Oc1cccc2ccccc12)C(=O)OCC(C)(C)C (some centres unmarked) [Example 85] and give its recorded CC50.
15

Consider the compound COc1nc(N)nc2c1ncn2C1O[C@H](COP(=O)(N[C@@H](C)C(=O)OCc2ccc(F)cc2F)Oc2cccc3ncccc23)[C@@H](O)[C@@]1(C)O (some centres unmarked) [Example 30] and give its recorded CC50.
110

Consider the compound COc1nc(N)nc2c1ncn2C1O[C@H](COP(=O)(N[C@@H](CCSC)C(=O)OCC(C)(C)C)Oc2cccc3ccccc23)[C@@H](O)[C@@]1(C)O (some centres unmarked) [Example 60] and give its recorded CC50.
28

Consider the compound COc1nc(N)nc2c1ncn2C1O[C@H](COP(=O)(N[C@H](C(=O)OCc2ccccc2)C(C)C)Oc2cccc3ccccc23)[C@@H](O)[C@@]1(C)O (some centres unmarked) [Example 36] and give its recorded CC50.
34

Consider the compound COc1nc(N)nc2c1ncn2C1O[C@H](COP(=O)(N[C@@H](CCSC)C(=O)O[C@@H](C)c2ccccc2)Oc2cccc3ccccc23)[C@@H](O)[C@@]1(C)O (some centres unmarked) [Example 59] and give its recorded CC50.
30

Consider the compound COc1nc(N)nc2c1ncn2C1O[C@H](COP(=O)(N[C@H](C(=O)O[C@@H](C)c2ccc(Br)cc2)C(C)C)Oc2cccc3ccccc23)[C@@H](O)[C@@]1(C)O (some centres unmarked) [Example 39] and give its recorded CC50.
0.9

Every entry's value here was drawn from patent US8759318B2.
